Below, each entry is listed with its recorded mass density.
experimental-setup: 348.15 K; 101.33 kPa; Liquid; Vibrating tube method
Kindly provide the numeric value in kg/m3 only, without the unit symbol.

Would you please look over these solved cases?
1) CCn1cc[n+](C)c1.O=S(=O)([O-])C(F)(F)F [1-ethyl-3-methylimidazolium trifluoromethanesulfonate] = 1344.4
2) CC(=O)[O-].CCn1cc[n+](C)c1 [1-ethyl-3-methylimidazolium acetate] = 1069.2
3) CCn1cc[n+](C)c1.CS(=O)(=O)[O-] [1-ethyl-3-methylimidazolium methanesulfonate] = 1209.1

Give the reported mass density for this compound. CCn1cc[n+](C)c1.CO[PH](=O)[O-] [1-ethyl-3-methylimidazolium methyl phosphonate] 1176.9

Give the reported mass density for this compound. CCn1cc[n+](C)c1.N#C[S-] [1-ethyl-3-methylimidazolium thiocyanate] 1087.2

Give the reported mass density for this compound. CCn1cc[n+](C)c1.N#CN=C=[N-] [1-ethyl-3-methylimidazolium dicyanamide] 1071.6

Give the reported mass density for this compound. CCn1cc[n+](C)c1.COP(=O)([O-])OC [1-ethyl-3-methylimidazolium dimethylphosphate] 1184.2

Give the reported mass density for this compound. CCn1cc[n+](C)c1.Cc1ccc(S(=O)(=O)[O-])cc1 [1-ethyl-3-methylimidazolium 4-methylbenzenesulfonate] 1194.5
